// reported melting point for each item listed

Reference set (4 entries):
CC1(C)CCC(C)(C)c2cc(-c3cc4ccc(C(=O)O)cc4s3)c(Br)cc21 ... 272 to 275 °C
NC(Cc1ccccc1)C(O)C(F)(F)F (stereo unspecified) ... 110 to 111 °C
CC(C)N1C(=O)c2cnc(-c3ccccc3)nc2Nc2ccccc21 ... 195 to 196 °C
COC(=O)C(C#N)c1cccc2ccc(OC)cc12 (stereo unspecified) ... 80 to 82 °C

Q: Record request: melting point value, item Cc1ccc(NCc2ccc(/C=C/C(=O)NO)cc2)cc1Nc1nccc(-c2cccnc2)n1
Ans: 201 to 205 °C

----------
quantity.name: melting point

Reference set (6 entries):
CC(=O)C1=C(O)C(=C(C)Nc2ccc(N)cc2)C(=O)OC1=O ... 215 to 218 °C
CCc1noc(-c2ncn(-c3cccc(OCc4ccccc4)c3)c2COC)n1 ... 63 to 64 °C
NC(=O)c1cccc(Nc2ccncc2)c1 ... 201 to 203 °C
O=C(O)CCCC(=O)NCc1ccccc1 ... 83 to 84 °C
CCc1scc(C(=O)O)c1N ... 132 to 133 °C
COc1ccc(C(=O)Nc2ccc3ccc(Oc4ccccc4)nc3n2)cc1 ... 160 °C

Proceed to the following item.
Q: Record request: melting point value, item COC(=O)Cn1c(C)cc(Cc2ccc(F)cc2)c(NC(=O)OCc2ccccc2)c1=O
Ans: 236 °C

----------
quantity.name: melting point

N#Cc1ccc(N2CCN(CC(=O)O)CC2=O)cc1 ... 120 °C
OCCn1ccc2ncnc(Nc3ccc(Oc4cccc5sncc45)c(Cl)c3)c21 ... 218 to 220 °C
O=C(O)CCc1cn(Cc2ccc(OCc3ccncc3)cc2)cc1-c1ccccc1 ... 124 to 125 °C
CCCCN(Cc1ccccc1)C(=O)Nc1cccc(Cl)c1O ... 59 to 62 °C
CC1CCCN(C(=O)C2Cc3cc(O)ccc3N2c2ccc(=O)n(C)n2)C1 (stereo not given) ... 253 to 256 °C
Cc1cccc(NC(=O)NC2N=C(c3ccccc3F)c3ccccc3N(CC(=O)NC3C4CC5CC(C4)CC3C5)C2=O)c1 (stereo not given) ... 245 to 246 °C

Q: Record request: melting point value, item CCC1(CC)Oc2cc(OC)c(C#N)cc2[C@@H](N2CCCC2=O)[C@@H]1O (relative stereo)
Ans: 193 to 195 °C

Q: Let us now turn to CCC(=O)Oc1cc(C(=O)c2c(Cl)cccc2Cl)c(C)cc1OC
Ans: 142 to 145 °C

Q: Let us now turn to CCNc1nc(Br)cn2c(Br)cnc12
Ans: 131 °C

Q: Let us now turn to COC(=O)C(C)=Cc1ccc(O)cc1
Ans: 103 to 104 °C

----------
// reported melting point for each item listed

Reference set (4 entries):
CONC(=O)NC1CCCc2sccc21 (stereo unspecified) ... 138 °C
O=C(NCCCn1ccnc1-c1ccccc1)c1cc2ccccc2[nH]1 ... 167 to 169 °C
C=CCc1cc(C2=NNC(=O)CC2)ccc1O ... 240 to 244 °C
O=[N+]([O-])c1cccc2cc(-c3ccccn3)[nH]c12 ... 162 to 163 °C

Q: Record request: melting point value, item Clc1cccnc1N1CCN(c2nc3ccc(Br)cc3[nH]2)CC1
Ans: 207 to 208 °C

Q: Let us now turn to Cc1ccc(I)c(I)c1C
Ans: 175 to 178 °C

Q: Let us now turn to CNC(=O)ON=C(Nc1ccc(C(F)(F)F)cc1)C1=NN(c2ccc(Cl)cc2)C(c2ccc(F)cc2)C1 (stereo unspecified)
Ans: 75 to 77 °C

Q: Let us now turn to CCCN(CCC(N)=O)CCC(N)=O
Ans: 101 to 102 °C

Q: Let us now turn to CC(C)(C)n1nnc(Cc2ccc(CBr)cc2)n1
Ans: 73 to 74 °C

Q: Let us now turn to CCOP(=O)(Cc1nnc2c(=O)[nH]c3c4ccccc4ccc3n12)OCC
Ans: 195 to 197 °C

Q: Let us now turn to COc1cc(C(=O)N(C(C)C)C(C)C)ccc1OCCCCCOc1ccc(C=NN)cc1
Ans: 112 to 114 °C
